test system: MS2 coat protein; test: apparent KD of MS2 coat protein; designed switch direction (-1 OFF switch, 1 ON switch): -1; higher = weaker reporter binding; conditions: Eterna round: R95; input ligand: microRNA oligo, concentration not stated
Returns one of yes (1) or no (0); yes (1) when apparent KD of MS2 coat protein is >= 40 nM.

Some solved cases for reference:
Lookup: Would you say UCAUACGAUGAGGAUAUCUCCGUUAAAGUAUGUAGAGAAGGCGUUACAUGAGGAUCACCCAUGUUUGUGGGCAG [Ex-6 Malc#9] (puzzle: Exclusion 6) shows apparent KD of MS2 coat protein at minimum 40 nM?
Found: yes (1)

Lookup: Would you say UUCAUGUGAGGAUAUGUGAUCUGCUUUCUGUUUAGAUGAUCACAGAAGGCACAUGAGGAUCACCCAUGUAGAUC [Ex4 - 3 - 30] (puzzle: Exclusion 4) shows apparent KD of MS2 coat protein at minimum 40 nM?
Found: yes (1)

Lookup: Would you say AUUAAAACAUAGGAUAUCGAAUUUAUUAUUUAACGAGAAGGAUGAACAUGAGGAUCACCCAUGUGGUAUCAUGG [Mat - Exclusion 6 - JL Mod - D26] (puzzle: Exclusion 6) shows apparent KD of MS2 coat protein at minimum 40 nM?
Found: yes (1)

Lookup: Would you say GUAAUGUGAGGAUAUGGUAAAGAUAAGAUGAUGAAAGAACUCCAGAAGGCACAUGAGGAUCACCCAUGUAGAUG [Mat - Exclusion 4 - Mod of JL - D27] (puzzle: Exclusion 4) shows apparent KD of MS2 coat protein at minimum 40 nM?
Found: no (0)

Lookup: Would you say CUUUAGUGAGGAUAUCAGUAGUAGAACAAUAGUACUACUACUGAGAAGGCACAUGAGGAUCACCCAUGUUCCUC [Fiskers Ex 4 Super stable 44 mod 8] (puzzle: Exclusion 4) shows apparent KD of MS2 coat protein at minimum 40 nM?
Found: no (0)

Further cases:
Lookup: Would you say CCUCAACAGUAGGAUAUCAUCAAACUAUUGUGAUGAGAAGGACUGACAUGAGGAUCACCCAUGUUAACGUGAUA [Exclusion 6 - 6:a] (puzzle: Exclusion 6) shows apparent KD of MS2 coat protein at minimum 40 nM?
Found: no (0)

Lookup: Would you say UAAUGCAAGUAAAGAUCUUACAUGAGGAUCACCCAUGUGCUCGUCUUAUAAAGUACUAUCACGAAAGUGAUAGUACA [Mat - Sensor v3 - turn-off var 1 - Eli Mod - D89] (puzzle: Sensor v3, turn-off variant 1) shows apparent KD of MS2 coat protein at minimum 40 nM?
Found: yes (1)

Lookup: Would you say AUACCAUGCCGCCUAAUAGCUUUUUGCCCGUCUUAUAAAACAUGAGGAUCACCCAUGUAAAACUCGUGGCGUGACCC [Quarre] (puzzle: Sensor v3, turn-off variant 2) shows apparent KD of MS2 coat protein at minimum 40 nM?
Found: no (0)

Lookup: Would you say ACAGCGUGAGGAUAUACAUGAGGAUCACCCAUGUGUGGCAGGUUAUCCUGUCAUAAGUGUAGAAGGCACGCUGU [Exclusion 3 - Oddities v.6 ( A small slide from ms2 to fmn)] (puzzle: Exclusion 3) shows apparent KD of MS2 coat protein at minimum 40 nM?
Found: no (0)

Lookup: Would you say CUGAUGGACUAGGAUAUCCUCAUCGAUCAGGGAGGAGAAGGAGUCACAUGAGGAUCACCCAUGUGAUGGUAAAA [Atqubi] (puzzle: Exclusion 6) shows apparent KD of MS2 coat protein at minimum 40 nM?
Found: no (0)

Lookup: Would you say GUAAAAAAAAAGGAUAUCGAACUUAUUAUUUAACGAGAAGGAUGAACAUGAGGAUCACCCAUGUGGUAUCAUGG [test] (puzzle: Exclusion 6) shows apparent KD of MS2 coat protein at minimum 40 nM?
Found: yes (1)

Lookup: Would you say UCCAAGACAGGAUAUCUAGAGCCAAACAUGAGGAUCACCCAUGUGAAUCUCAGCAAACGCAGAGAAGGGUCAAAAU [Orisinxe] (puzzle: Exclusion 5) shows apparent KD of MS2 coat protein at minimum 40 nM?
Found: no (0)

All figures here come from the supplement of paper PMC9170038.
